- experimental_system: IRAK4 (Homo sapiens, UniProt Q9NWZ3)
- assay_explanation: biochemical
- condition: IRAK4 Biochemical Assay (1 mM ATP, 2 h) IC50 (μM), 1 mM ATP, 2 h, 100 pM IRAK4
Structures can show the parent of a compound that is named as a salt.
parameter: IC50 (µM)

>  <compound>
COc1ncccc1NC(=O)c1cn2cc(C34CC(OC)(C3)C4)nc2cc1OC(C)C [Example 252, trifluoroacetate]

>  <IC50, µM>
0.0004

$$$$
>  <compound>
O=C(Nc1cccc(C(F)F)n1)c1cn2cc(C3CC3)nc2cc1OC1CC(C(F)F)C1 (stereo not drawn) [Example 477]

>  <IC50, µM>
0.0011

$$$$
>  <compound>
CC(C)Oc1nc2nc(C3C4COCC43)cn2cc1C(=O)Nc1ccn(C)n1 (stereo not drawn) [Example 396, formate]

>  <IC50, µM>
0.0076

$$$$
>  <compound>
CCOc1nc(C(=O)Nc2cccnc2OC)cn2cc(C34CCC(C)(C3)OC4)nc12 (stereo not drawn) [Example 276, trifluoroacetate]

>  <IC50, µM>
0.0009

$$$$
>  <compound>
CC12CC(c3cn4cc(C(=O)Nc5cccn(C6CC6)c5=O)c(OC5CCC5)nc4n3)(CO1)C2 [Example 651]

>  <IC50, µM>
0.0005

$$$$
>  <compound>
CC(C)Oc1nc2nc(C34COC(C)(C3)C4)cn2cc1C(=O)Nc1cccc2c1ncn2C [Example 379, trifluoroacetate]

>  <IC50, µM>
0.001

$$$$

a. CC(C)Oc1cc2nc(C34COC(C)(C3)C4)cn2cc1C(=O)Nc1cc(F)n(C)n1 [Example 641, trifluoroacetate]
b. COc1cc2nc(C3CCC(OC)C3)cn2cc1C(=O)Nc1cccc(C(F)(F)F)n1 (stereo not drawn) [Example 41]
Which of these two has the smaller recorded IC50: a or b ? Lab note: record the label of whichever item you select.
a

====

- experimental_system: IRAK4 (Homo sapiens, UniProt Q9NWZ3)
- Sequence (Q9NWZ3 1-460): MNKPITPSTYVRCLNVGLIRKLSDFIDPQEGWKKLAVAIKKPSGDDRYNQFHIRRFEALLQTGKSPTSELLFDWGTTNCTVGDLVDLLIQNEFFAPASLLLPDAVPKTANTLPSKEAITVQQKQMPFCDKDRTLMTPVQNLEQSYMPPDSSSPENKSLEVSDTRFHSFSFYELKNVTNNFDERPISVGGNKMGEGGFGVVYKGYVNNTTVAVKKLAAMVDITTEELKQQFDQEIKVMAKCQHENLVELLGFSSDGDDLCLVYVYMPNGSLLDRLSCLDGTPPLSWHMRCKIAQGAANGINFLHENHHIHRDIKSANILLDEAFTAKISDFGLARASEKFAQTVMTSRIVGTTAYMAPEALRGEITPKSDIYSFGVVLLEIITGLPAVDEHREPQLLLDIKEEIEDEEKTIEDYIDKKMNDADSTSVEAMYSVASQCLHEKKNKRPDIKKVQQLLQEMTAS
- assay_explanation: biochemical
parameter: IC50 (nM)

>  <compound>
COc1cc2nc(C3CCOCC3)cn2cc1C(=O)Nc1ccc(O)nc1OC [Example 188]

>  <IC50 [nM]>
326

$$$$
>  <compound>
Cc1cnc2c(NC(=O)c3cn4cc(C56CCC(C5)OC6)nc4nc3OC(C)C)cnn2c1 (centres unmarked) [Example 433]

>  <IC50 [nM]>
0.6

$$$$
>  <compound>
CC12CC(c3cn4cc(C(=O)Nc5cnn6cccnc56)c(OC5CCC5)cc4n3)(CO1)C2 [Example 406]

>  <IC50 [nM]>
0.3

$$$$
>  <compound>
Cc1cnc2c(NC(=O)c3cn4cc(C56CCC(C)(C5)OC6)nc4nc3OC(C)C)cnn2c1 (centres unmarked) [Example 569]

>  <IC50 [nM]>
2.4

$$$$
>  <compound>
CC12CC(c3cn4cc(C(=O)Nc5cccn(C(F)F)c5=O)c(OC5CCC5(C)C)cc4n3)(CO1)C2 (centres unmarked) [Example 439]

>  <IC50 [nM]>
2.8

$$$$

A. O=C(Nc1cccc(C(F)F)n1)c1cn2cc(C3CC3)nc2cc1OC1CCOC1 (centres unmarked) [Example 468]
B. Cn1cc(-c2cccc(NC(=O)c3cn4cc(C56CCC(C)(C5)OC6)nc4cc3OC3CCC3)n2)cn1 (centres unmarked) [Example 542]
Between A and B , which one shows the larger IC50 value? Lab note: record the label of whichever item you select.
A
(A: 7 nM, B: 0.1 nM)

P. COc1cc2nc(C3CCOCC3)cn2cc1C(=O)Nc1cccnc1OC(C)C [Example 200]
Q. COc1ncccc1NC(=O)c1cn2cc(C3CC3)nc2nc1OC(C)C [Example 283]
Which of these two has the smaller recorded IC50: P or Q ? Lab note: record the label of whichever item you select.
Q

I. Cc1ccn2ncc(NC(=O)c3cn4cc(C56COC(C)(C5)C6)nc4cc3OC(C)C)c2n1 [Example 263]
II. CC12CCC(c3cn4cc(C(=O)Nc5ccn(CCF)n5)c(OC5CCC5)cc4n3)(CO1)C2 (centres unmarked) [Example 537]
Between I and II , which one shows the larger IC50 value? Lab note: record the label of whichever item you select.
II
(II: 6.3 nM, I: 0.2 nM)
